Property: pIC50; scope: individual compounds
Sequence of the target: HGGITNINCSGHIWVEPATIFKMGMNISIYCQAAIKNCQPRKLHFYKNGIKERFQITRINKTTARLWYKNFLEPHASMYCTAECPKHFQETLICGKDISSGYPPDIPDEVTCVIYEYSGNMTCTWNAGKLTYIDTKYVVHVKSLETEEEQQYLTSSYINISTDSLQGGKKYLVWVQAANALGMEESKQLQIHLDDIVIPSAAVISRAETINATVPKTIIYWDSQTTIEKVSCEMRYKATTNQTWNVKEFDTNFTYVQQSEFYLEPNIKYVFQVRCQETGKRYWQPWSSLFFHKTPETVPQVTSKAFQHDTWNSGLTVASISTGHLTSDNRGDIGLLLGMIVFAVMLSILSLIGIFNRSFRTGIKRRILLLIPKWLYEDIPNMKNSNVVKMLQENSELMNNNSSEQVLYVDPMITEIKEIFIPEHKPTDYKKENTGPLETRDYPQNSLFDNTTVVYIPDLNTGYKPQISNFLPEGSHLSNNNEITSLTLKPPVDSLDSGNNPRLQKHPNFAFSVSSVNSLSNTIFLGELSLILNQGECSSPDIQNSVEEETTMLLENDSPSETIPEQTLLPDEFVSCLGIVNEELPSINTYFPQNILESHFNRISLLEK
In textbook form, pIC50 equals minus log to base ten of the concentration in mol/L.

**Q:** Quick one: pIC50 of CC[C@H](C)[C@@H]1NC(=O)[C@@H]2CCCCNC(=O)CC[C@@H](C(=O)N[C@@H](Cc3cnc4ccccc4c3)C(=O)N[C@@H](Cc3cccnc3)C(=O)NC)NC(=O)[C@](C)(CC(C)C)NC(=O)[C@H](Cc3ccc4ccccc4c3)NC(=O)[C@H](Cc3ccc(OCCN)cc3)NC(=O)[C@H](CCC(=O)N2)NC(=O)[C@H](CCC(N)=O)NC(=O)[C@H](Cc2c[nH]c3ccccc23)NC(=O)[C@H](C(C)C)NC1=O [Compound 71] ?
**A:** 10.08

**Q:** What does the record list as pIC50 for CCCCc1ccc(C[C@@H]2NC(=O)[C@@H]3CCC(=O)N[C@@H](CCCCNC(=O)CC[C@@H](C(=O)N[C@@H](CCN)C(=O)N[C@@H](Cc4cccnc4)C(=O)NC)NC(=O)[C@](C)(CC(C)C)NC(=O)[C@H](Cc4ccc5ccccc5c4)NC2=O)C(=O)N[C@@H]([C@@H](C)CC)C(=O)N[C@@H](C(C)C)C(=O)N[C@@H](Cc2c[nH]c4ccccc24)C(=O)N[C@@H](CCC(N)=O)C(=O)N3)cc1 [Compound 33] ?
**A:** 9.12

----------
Overview of reported SIF (% remaining 4 h) across a group of compounds:
- TEST NAME: Peptide stability in simulated intestinal fluid (SIF)
- Type: in vitro ADME
- CONDITION INFO: 10 µM, 37 °C, porcine pancreatin, pH 6.8, 4 h
- Method: SGF was prepared by dissolving sodium chloride (0.2 g) in 50 mL of water. A volume of 0.7 mL of 10 M HCl was added to adjust the pH of the solution to 1.2 and the volume made up to 100 mL with water. […] SIF was prepared by dissolving monobasic potassium phosphate (0.68 g) in 50 mL of water and adjusting the pH to 6.8 with 1 M NaOH. […] The incubation was performed at 37 °C with gentle shaking. […] Percent remaining at each timepoint was calculated relative to timepoint zero based on absolute peak areas. […]
Just the number please, in %, no unit attached.

>>> measured_value("CC[C@H](C)[C@@H]1NC(=O)[C@@H]2CCCCNC(=O)CC[C@@H](C(=O)NCCCCC(=O)N[C@@H](Cc3cccnc3)C(=O)NC)NC(=O)[C@](C)(CC(C)C)NC(=O)[C@H](Cc3ccc4ccccc4c3)NC(=O)[C@H](Cc3ccc(OCCN)cc3)NC(=O)[C@H](CCC(=O)N2)NC(=O)[C@H](CCC(N)=O)NC(=O)[C@H](Cc2c[nH]c3ccccc23)NC(=O)[C@H](C(C)C)NC1=O [Compound 64]")
86

**Q:** May I ask what SIF (% remaining 4 h) has been recorded for CNC(=O)[C@H](Cc1cccnc1)NC(=O)[C@H](CCN)NC(=O)[C@@H]1CCC(=O)NCCCC[C@@H]2NC(=O)CC[C@H](NC(=O)[C@H](CCC(N)=O)NC(=O)[C@H](Cc3c[nH]c4ccccc34)NC(=O)CNC2=O)C(=O)N[C@@H](Cc2ccc(OCCN)cc2)C(=O)N[C@@H](Cc2ccc3ccccc3c2)C(=O)N[C@@](C)(CC(C)C)C(=O)N1 [Compound 44] ?
**A:** 5
